# reported EC50; entries follow
biological target: Recombinant human soluble guanylate cyclase (sGC) (Homo sapiens); construct: histidine tag (C); experiment: Molecular assay: activation of heme-free sGC, cGMP detection (CisBio kit); settings: 300 pM heme-free sGC, 37° C., 60 minutes, cGMP formation
Sequence (Q02108 whole entry partner): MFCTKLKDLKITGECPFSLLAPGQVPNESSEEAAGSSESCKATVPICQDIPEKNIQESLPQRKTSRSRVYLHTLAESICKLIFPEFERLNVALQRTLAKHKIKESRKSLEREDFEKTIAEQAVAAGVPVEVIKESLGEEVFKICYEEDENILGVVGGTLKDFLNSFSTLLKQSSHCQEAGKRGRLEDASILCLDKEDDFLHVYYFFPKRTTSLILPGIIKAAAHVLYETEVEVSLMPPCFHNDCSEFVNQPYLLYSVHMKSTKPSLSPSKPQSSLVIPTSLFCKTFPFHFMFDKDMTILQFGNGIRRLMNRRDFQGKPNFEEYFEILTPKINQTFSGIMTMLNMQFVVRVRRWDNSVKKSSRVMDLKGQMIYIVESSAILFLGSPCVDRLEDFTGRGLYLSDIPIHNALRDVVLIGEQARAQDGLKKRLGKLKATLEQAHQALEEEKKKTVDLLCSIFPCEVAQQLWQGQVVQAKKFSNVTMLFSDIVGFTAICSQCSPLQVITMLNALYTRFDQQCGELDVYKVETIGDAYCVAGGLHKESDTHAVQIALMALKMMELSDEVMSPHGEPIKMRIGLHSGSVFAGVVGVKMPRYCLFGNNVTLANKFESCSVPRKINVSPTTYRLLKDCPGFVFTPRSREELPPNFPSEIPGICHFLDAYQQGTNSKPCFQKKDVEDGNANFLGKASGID
Sequence (Q02153 whole entry): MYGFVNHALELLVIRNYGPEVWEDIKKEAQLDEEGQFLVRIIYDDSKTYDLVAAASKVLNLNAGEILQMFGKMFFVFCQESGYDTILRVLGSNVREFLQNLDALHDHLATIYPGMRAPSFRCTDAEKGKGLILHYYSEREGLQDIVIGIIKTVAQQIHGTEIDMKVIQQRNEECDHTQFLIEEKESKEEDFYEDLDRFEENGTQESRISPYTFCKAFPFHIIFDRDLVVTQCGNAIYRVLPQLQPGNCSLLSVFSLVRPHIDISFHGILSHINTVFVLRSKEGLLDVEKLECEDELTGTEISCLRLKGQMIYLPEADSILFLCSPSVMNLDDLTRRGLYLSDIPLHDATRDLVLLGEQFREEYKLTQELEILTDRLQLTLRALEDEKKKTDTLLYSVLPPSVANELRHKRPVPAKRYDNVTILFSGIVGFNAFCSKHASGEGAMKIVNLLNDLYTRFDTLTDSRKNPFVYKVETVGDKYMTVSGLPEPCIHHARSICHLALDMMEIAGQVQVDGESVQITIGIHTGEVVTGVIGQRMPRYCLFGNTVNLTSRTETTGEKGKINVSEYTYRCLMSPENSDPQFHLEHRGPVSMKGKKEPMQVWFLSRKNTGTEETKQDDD
Measurement name: EC50 (nM)

Compound: Cc1ccc(OCc2ccc3c(c2)CCN(C(C)c2cnccn2)C3)c(-c2cccc(-n3ncc(C(=O)O)c3C(F)(F)F)n2)c1 (stereo not shown) [Compound 28]
Quantitative readout: 9
--
Compound: Cc1ccc(OCc2ccc3c(c2)CCN(C2CCC2)C3)c(-c2cccc(-n3ncc(C(=O)O)c3C(F)(F)F)n2)c1 [Compound 16]
Quantitative readout: 33
--
Compound: Cc1ccc(OCc2cc3c(cc2C)CN(C)CC3)c(-c2cccc(-n3ncc(C(=O)O)c3C(F)(F)F)n2)c1 [Compound 62]
Quantitative readout: 440
--
Compound: Cc1cccc(-c2cccc(-c3ncc(C(=O)O)n3C)n2)c1OCc1ccc2c(c1)CCN(CC1CCOCC1)C2 [Compound 68]
Quantitative readout: 180
--
Compound: Cc1ccc(OCc2ccc3c(c2)CCN(C)C3)c(-c2cccc(-c3sc(C(=O)O)cc3C)n2)c1 [Compound 37]
Quantitative readout: 198
--
Compound: Cc1cccc(-c2cccc(-c3c(C)c(C(=O)O)nn3CCC(=O)O)n2)c1OCc1ccc2c(c1)CCN(C1CCOCC1)C2 [Compound 85]
Quantitative readout: 94
--
Compound: Cc1ccc(OCc2ccc3snnc3c2)c(-c2cccc(-n3ncc(C(=O)O)c3C(F)(F)F)n2)c1 [Compound 7]
Quantitative readout: 490
